Known mAb-2 Binding to the Pre-complex of mAb-1 & MfIL-33-6xHis of a selection of binders
Molecular target: T1, cynomolgus monkey IL-33 expressed with a C-terminal hexahistidine tag (cynomolgus monkey)
T1 construct: also called MfIL-33-6His; Mf-IL-33-6His
T1 chain: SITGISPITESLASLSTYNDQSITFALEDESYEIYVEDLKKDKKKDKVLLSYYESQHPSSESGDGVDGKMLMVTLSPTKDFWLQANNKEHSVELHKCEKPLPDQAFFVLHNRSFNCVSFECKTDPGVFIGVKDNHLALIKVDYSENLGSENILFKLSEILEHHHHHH
Assay: BLI; captured MfIL-33-6His, mAb-1 step with Buffer
OBSERVATION_TYPE: mAb-2 Binding to the Pre-complex of mAb-1 & MfIL-33-6xHis (nm)

BINDER	RECORDED_VALUE
H1M9568N (antibody, mouse IgG1, V domains shown, Human variable domains, mouse IgG1 Fc (H1M)) VH: QVLLVQSGAEVKKPGATVKVSCKASGSTFTGYYMHWVRQAPGQGLEWMGWINPNNGGTNYAQKFQGRVTMTRDTSISTAYMELSRLRSDDTAVYYCARELRYNWKSWGQGTLVTVSS VL: EIVLTQSPGTLSLSPGERVTLSCRASQSVGRPYLAWYQQIPGQAPRLLIYGASSRATDIPDRFSGNGSGTDFTLTISRLEPEDFAVYYCQQYDNSPYTFGQGTRLEIK	0.37
H4H9676P (antibody, human IgG4, V domains shown, Human IgG4 Fc (H4H)) VH: EVQLVESGGGLVQPGGSLRLSCSASGFTFSSYAMNWVRQAPGKGLEWVTAISGSGGGTYYADSVKGRFTISRDNSKNSLFLQLNSLRAEDTAVYYCAKQTYTSSWYGGFDIWGQGTMVTVSS VL: DIQMTQSPSSVSASVGDRVTITCRASQGFSSWLAWYQQIPGKAPKLLIYAASRLQSGVPSRFRGSGSGTDFTLTISSLQPEDFATYYCQQANSFPLTFGGGTKVEIK	0.29
H4H9670P (antibody, V domains shown, Human IgG4 Fc (H4H)) VH: EVQLVESGGGLVQPGGSLRLSCAASGFTLSSYAMSWVRQAPGKGLEWVSAISGSGGSTYYADSVKGRFTISRDNSKNSLYLQLNSLRAEDTAVYYCAKTLYTTSWYGGFQHWGQGTLVTVSS VL: DIQMTQSPSSVSASIGDRVTITCRASQGISSWLAWYQQKPGKVPKLLIYAASSLQSGFPSRFSGSGSGTDFTLTISSLQPEDFATYYCQQTHSFPWTVGQGTKVEIK	0.3

Cited source for all entries: patent US20160362487A1
